- assay.system: human glucagon-like peptide 1 receptor (human, UniProt P43220 24-463)
- Sequence (P43220 24-463): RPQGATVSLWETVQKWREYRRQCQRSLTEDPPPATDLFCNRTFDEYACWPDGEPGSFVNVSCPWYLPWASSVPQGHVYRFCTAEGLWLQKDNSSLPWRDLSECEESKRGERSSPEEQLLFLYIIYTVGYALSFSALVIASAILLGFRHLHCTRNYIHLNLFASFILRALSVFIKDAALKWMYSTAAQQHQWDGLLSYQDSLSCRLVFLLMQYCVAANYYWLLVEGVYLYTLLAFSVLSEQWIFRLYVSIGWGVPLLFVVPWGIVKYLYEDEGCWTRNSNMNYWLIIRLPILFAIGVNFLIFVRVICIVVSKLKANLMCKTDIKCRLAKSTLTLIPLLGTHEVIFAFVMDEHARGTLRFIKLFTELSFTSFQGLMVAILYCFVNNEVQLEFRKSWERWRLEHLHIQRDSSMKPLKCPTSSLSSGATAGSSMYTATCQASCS
- assay.name: cell-based or functional assay
Numbered stars: 1 amine (or outer) side, 2 acyl side, 3 side chain; on linkers, the order of the positions; unused ones are H or OH. Square brackets hold non-standard residues; d marks the D form. Side chains are listed from the residue outwards. Ends that are not written are not given here. * marks the point of attachment. γGlu = O=C(O)[C@H](CCC(=O)[*:2])N[*:1]; Palmitoyl = CCCCCCCCCCCCCCCC(=O)*; Aib = CC(C)(N)C(=O)O
readout.kind: GLP-1R EC50 (nM), cAMP formation in HEK293 cells expressing human GLP-1-R
// units = nM; emit number, no label

Consider the reported GLP-1R EC50 (nM), cAMP formation in HEK293 cells expressing human GLP-1-R for these binders:
H-HSQGTFTSDYSKYLDSKAARDFVRWLKLA-NH2 [ZP2668] = 0.08
H-HSQGTFTSDYSKYLDSKAAQDFVEWLLRA-NH2 [L006-0171] = 0.37
H-HSQGTFTSDYSKYLDSKAAHDFVEWLLRA-NH2 [ZP2669] = 0.05
H-HSQGTFTSDYSKYLDSKAAQDFVQWLMNT-NH2 [ZP2667] = 0.02
H-HSQGTFTSDYSKYLDSKAAHDFVEWLLRA-OH [L006-0296] = 0.14

Reported GLP-1R EC50 (nM), cAMP formation in HEK293 cells expressing human GLP-1-R for H-HSQGTFTSDYSKYLDSLAAQDFVQWLLNT-NH2 [ZP2753] : what is it?
0.04

Any idea what GLP-1R EC50 (nM), cAMP formation in HEK293 cells expressing human GLP-1-R was measured for H[Aib]QGTFTSDYSKYLDSKAAHDFVEWLLRA-NH2 [ZP2867] ?
0.08

Item HSQGTFTSDYSKYLDSK([γGlu-Palmitoyl])AAHDFVEWLLRA-NH2 [ZP2872] has what recorded GLP-1R EC50 (nM), cAMP formation in HEK293 cells expressing human GLP-1-R?
0.103

Data request, read-out GLP-1R EC50 (nM), cAMP formation in HEK293 cells expressing human GLP-1-R, for H[dS]QGTFTSDYSKYLDSKAAHDFVEWLLRA-NH2 [ZP2866]
0.09

What value of GLP-1R EC50 (nM), cAMP formation in HEK293 cells expressing human GLP-1-R has been recorded for this entry: H-HSQGTFTSDYSKYLDSKAAHDFVKWLLRA-NH2 [L006-0212]
0.76
